Tested on: PC-3 human prostate epithelial adenocarcinoma grade IV cells
Experiment: MTT cell toxicity assay
Format: cell-based
Measurement Parameters: Homo sapiens, 72 h, read-out: cancer cell growth inhibition, GI50
// returns not met unless GI50 is strictly below 2 µM, in which case met

The examples below pair each entry with its known result.
compound="COc1cc(COC(=O)CCCCC[P+](c2ccccc2)(c2ccccc2)c2ccccc2)c(OC)c2c1OCO2.[Br-] [compound 16]" qualitative_label="not met"
compound="Nc1ncnc2c1ccn2[C@@H]1O[C@H](CO)[C@@H](O)[C@H]1O [tubercidin, Tubercidin, reference compound]" qualitative_label=met
compound="COc1cc(OCCCCCC[P+](c2ccccc2)(c2ccccc2)c2ccccc2)c(OC)c2c1OCO2.[Br-] [compound 11]" qualitative_label=met
compound="COc1c(CCCO)cc2c(c1OC)OCO2 [4b]" qualitative_label="not met"

Exercise: Given COc1cc(CCC[P+](c2ccccc2)(c2ccccc2)c2ccccc2)c(OC)c2c1OCO2.[I-] [7a] , is recorded GI50 strictly lower than 2 µM?
Solution: met

Exercise: Given COc1cc(CCC[P+](c2ccccc2)(c2ccccc2)c2ccccc2)c(OC)c(OC)c1OC.[I-] [7d] , is recorded GI50 strictly lower than 2 µM?
Solution: not met

Exercise: Given C=CCc1cc(OC)c2c(c1OC)OCO2 [1a, Apiol] , is recorded GI50 strictly lower than 2 µM?
Solution: not met

Exercise: Given COc1cc(CCCO)c(OC)c(OC)c1OC [4d] , is recorded GI50 strictly lower than 2 µM?
Solution: not met

Exercise: Given COc1cc(CCCO)c(OC)c2c1OCO2 [4a] , is recorded GI50 strictly lower than 2 µM?
Solution: not met
